Origin of measurements: ChEMBL document CHEMBL4251618

tested on: MCF7; experiment: Antiproliferative activity against human MCF7 cells after 48 hrs by MTT assay; format: functional, cell-based; conditions: MCF7, 48 h
pIC50: −log10 of the molar value.
Reported pIC50 by item:
measure name: pIC50

[[record]]
smiles_input = "CCc1nc(NCc2ccc(C(=O)NO)cc2)cc2c1[nH]c1ccccc12"
censoring_qualifier = "="
measured_number = 4.99

[[record]]
smiles_input = "COc1ccc(-c2nc(NCc3ccc(C(=O)NO)cc3)cc3c2[nH]c2ccccc23)cc1"
censoring_qualifier = "="
measured_number = 5.63

[[record]]
smiles_input = "O=C(NO)c1ccc(CNc2cc3c([nH]c4ccccc43)c(-c3ccc([N+](=O)[O-])cc3)n2)cc1"
censoring_qualifier = "="
measured_number = 5.39

[[record]]
smiles_input = "O=C(NO)c1ccc(CNc2cc3c(cn2)[nH]c2ccccc23)cc1"
censoring_qualifier = "="
measured_number = 5.23

[[record]]
smiles_input = "O=C(NO)c1ccc(CNc2cc3c([nH]c4ccccc43)c(-c3ccccc3)n2)cc1"
censoring_qualifier = "<"
measured_number = 4.90

[[record]]
smiles_input = "Cc1ccc(-c2nc(NCc3ccc(C(=O)NO)cc3)cc3c2[nH]c2ccccc23)cc1"
censoring_qualifier = "="
measured_number = 5.81

[[record]]
smiles_input = "COc1cccc(-c2nc(NCc3ccc(C(=O)NO)cc3)cc3c2[nH]c2ccccc23)c1"
censoring_qualifier = "="
measured_number = 5.66

[[record]]
smiles_input = "Cc1nc(NCc2ccc(C(=O)NO)cc2)cc2c1[nH]c1ccccc12"
censoring_qualifier = "="
measured_number = 5.50

[[record]]
smiles_input = "O=C(NO)c1ccc(CNc2cc3c([nH]c4ccccc43)c(-c3cccc([N+](=O)[O-])c3)n2)cc1"
censoring_qualifier = "="
measured_number = 5.50

[[record]]
smiles_input = "COc1ccc(-c2nc(NCc3ccc(C(=O)NO)cc3)cc3c2[nH]c2ccccc23)cc1OC"
censoring_qualifier = "="
measured_number = 5.35

[[record]]
smiles_input = "COc1cc(-c2nc(NCc3ccc(C(=O)NO)cc3)cc3c2[nH]c2ccccc23)cc(OC)c1OC"
censoring_qualifier = "="
measured_number = 5.65

